assay: AP1 Signaling Pathway (AID 357); conditions: ME-180 (cervical carcinoma) AP-1-bla reporter, EGF-induced, beta-lactamase ratio, 5 h; at 17.2 µM (top of the series);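 note: ME-180 reporter cells stimulated with EGF at its EC50 level; % is set by controls: 0 for no effect and ±100 for the full control effect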
Inconclusive results are not listed. Calls of active or inactive are those of the source. Calls come from the whole dose curve; as a rule, active = well fitted curve in either direction with a large enough effect (not every such curve was filed as active); inconclusive = small, poorly fitted or top-dose-only effect, or another doubt; inactive = flat fitted curve, though single readings scatter.

{"columns": ["molecule", "activity change, negative = inhibition"],
 "data": [
  ["CCN(CC)CCOCCOC(=O)C1(c2ccccc2)CCCC1", "-7.4% (inactive)"],
  ["CCCOc1ccccc1-c1nc2n[nH]nc2c(=O)[nH]1", "-18.5% (inactive)"],
  ["COCCc1ccc(OCC(O)CNC(C)C)cc1 (stereo not drawn)", "3.62% (inactive)"],
  ["Cc1scc2c1N(C(=O)CN1CCN(C)CC1)c1ccccc1NC2=O", "4.19% (inactive)"],
  ["O=C1NCN(c2ccccc2)C12CCN(CCCC(c1ccc(F)cc1)c1ccc(F)cc1)CC2", "-2.84% (inactive)"],
  ["CO[C@@]1(NC(=O)CSCC#N)C(=O)N2C(C(=O)O)=C(CSc3nnnn3C)CS[C@@H]21", "6.1% (inactive)"],
  ["CCCC(C(=O)OCCN(CC)CC)(c1ccccc1)c1ccccc1", "16.9% (inactive)"],
  ["COCCOC(=O)C1=C(C)NC(C)=C(C(=O)OC(C)C)C1c1cccc([N+](=O)[O-])c1 (stereo not drawn)", "-20.8% (inactive)"],
  ["CN/C(=C\\[N+](=O)[O-])NCCSCc1ccc(CN(C)C)o1", "-3.39% (inactive)"],
  ["CCOC(=O)C1=C(C)NC(C)=C(C(=O)OC)C1c1cccc([N+](=O)[O-])c1 (stereo not drawn)", "-25.4% (inactive)"],
  ["NC(N)=NC(=O)Cc1c(Cl)cccc1Cl", "3.24% (inactive)"],
  ["CN(C)[C@@H]1C(=O)C(C(N)=O)=C(O)[C@@]2(O)C(=O)C3=C(O)c4c(O)ccc(Cl)c4[C@@H](O)[C@H]3C[C@@H]12", "-3.11% (inactive)"],
  ["C#CCN(C)CCCOc1ccc(Cl)cc1Cl", "-12.7% (inactive)"],
  ["Cc1nc2ccccn2c(=O)c1CCN1CCC(C(=O)c2ccc(F)cc2)CC1", "-5.86% (inactive)"],
  ["C(=C\\c1ccccc1)/CN1CCN(C(c2ccccc2)c2ccccc2)CC1", "-4.86% (inactive)"],
  ["COc1ccc([C@@H]2Sc3ccccc3N(CCN(C)C)C(=O)[C@@H]2OC(C)=O)cc1", "23.2% (inactive)"],
  ["CCOC(=O)C1=C(C)NC(C)=C(C(=O)OC)C1c1cccc(Cl)c1Cl (stereo not drawn)", "-7.25% (inactive)"],
  ["CC(C)(C)NCC(O)c1cc(O)cc(O)c1 (stereo not drawn)", "-16.4% (inactive)"],
  ["CN(C)C(=O)Oc1ccc[n+](C)c1", "8.22% (inactive)"],
  ["CCn1cc(C(=O)O)c(=O)c2cc3c(cc21)OCO3", "-4.15% (inactive)"],
  ["Cc1ccc(Cl)c(Nc2ccccc2C(=O)O)c1Cl", "-18.4% (inactive)"],
  ["c1cnc(N2CCN(Cc3ccc4c(c3)OCO4)CC2)nc1", "-7.76% (inactive)"],
  ["C[C@H](CS)C(=O)N1CCC[C@H]1C(=O)O", "-1.77% (inactive)"]
]}

Values were extracted from PubChem BioAssay (NCATS).
